System: RARa homodimer (NR concentration 270 nM)
test.name: PBM binding z-score (relative to random genomic background probes); higher = stronger binding; sequences stand for … in GC…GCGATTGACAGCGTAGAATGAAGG
Task for the reader: assign each of the following sequences its reported PBM binding z-score.
One number for each entry.

Previously resolved entries follow.
Query: Supply PBM binding z-score measured with RARa homodimer (NR concentration 270 nM) for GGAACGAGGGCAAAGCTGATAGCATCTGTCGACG .
Reply: -0.822

Query: Supply PBM binding z-score measured with RARa homodimer (NR concentration 270 nM) for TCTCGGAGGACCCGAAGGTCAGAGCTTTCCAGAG .
Reply: -0.281

Query: Supply PBM binding z-score measured with RARa homodimer (NR concentration 270 nM) for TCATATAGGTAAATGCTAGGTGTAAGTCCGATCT .
Reply: 1.01

Query: Supply PBM binding z-score measured with RARa homodimer (NR concentration 270 nM) for CCTACTGGGCAACGAAAGGTCATTGATTCAGTGA .
Reply: 2.52

Query: Supply PBM binding z-score measured with RARa homodimer (NR concentration 270 nM) for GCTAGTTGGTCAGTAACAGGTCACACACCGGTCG .
Reply: 1.15

Parameters: items (list). Returns: PBM binding z-score for each item.
1. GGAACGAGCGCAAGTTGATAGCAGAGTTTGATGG
2. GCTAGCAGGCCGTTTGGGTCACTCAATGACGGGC

Reply:
[-1.13, -1.38]

Parameters: items (list). Returns: PBM binding z-score for each item.
1. CGTCCAAGGTCAATGCTAGGTCAGTGCAAGCATT
2. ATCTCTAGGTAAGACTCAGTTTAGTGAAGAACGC

Reply:
[1.48, 1.22]

Parameters: items (list). Returns: PBM binding z-score for each item.
1. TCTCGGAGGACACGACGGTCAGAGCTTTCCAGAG
2. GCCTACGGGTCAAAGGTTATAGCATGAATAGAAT
3. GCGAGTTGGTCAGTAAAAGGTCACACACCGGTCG
4. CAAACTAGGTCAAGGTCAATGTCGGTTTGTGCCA
5. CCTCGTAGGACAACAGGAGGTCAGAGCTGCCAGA
6. CCTCGGAGGACTGAAGGTCAGAGCTGTCCGCTTT

Reply:
-0.599
0.254
2.5
2.18
0.699
-0.166

Parameters: items (list). Returns: PBM binding z-score for each item.
1. CCTAGTTGGTCAGGAGGTCACAGACCGGATATGA
2. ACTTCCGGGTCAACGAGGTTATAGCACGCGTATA
3. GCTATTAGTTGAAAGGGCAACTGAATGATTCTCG
4. TCTTGTAGATCAATAGAGGTTCAGAAAGTGCGCT
5. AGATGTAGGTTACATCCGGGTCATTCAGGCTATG
6. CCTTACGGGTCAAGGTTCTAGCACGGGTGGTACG

Reply:
1. 1.4
2. 0.82
3. 0.584
4. 0.189
5. -0.0966
6. 0.251

* * *

Tested on: RARg homodimer (NR concentration 270 nM)
test.name: PBM binding z-score (relative to random genomic background probes); higher = stronger binding; sequences stand for … in GC…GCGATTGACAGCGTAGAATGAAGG
measured.metric: PBM binding z-score
Answers are plain numbers.

Parameters: items (list). Returns: PBM binding z-score for each item.
1. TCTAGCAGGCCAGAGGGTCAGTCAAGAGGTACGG
2. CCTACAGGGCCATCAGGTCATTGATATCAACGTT
3. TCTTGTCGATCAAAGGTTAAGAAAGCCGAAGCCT
4. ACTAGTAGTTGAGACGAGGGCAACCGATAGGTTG
5. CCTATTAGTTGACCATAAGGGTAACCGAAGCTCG
6. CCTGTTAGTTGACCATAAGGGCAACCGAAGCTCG
7. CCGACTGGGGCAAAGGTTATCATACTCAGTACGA
8. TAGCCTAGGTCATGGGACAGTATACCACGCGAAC

Reply:
1.82
2.35
0.765
0.837
0.877
0.916
1.45
4.59

Parameters: items (list). Returns: PBM binding z-score for each item.
1. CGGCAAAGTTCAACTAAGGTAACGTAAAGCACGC
2. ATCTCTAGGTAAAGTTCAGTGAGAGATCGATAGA
3. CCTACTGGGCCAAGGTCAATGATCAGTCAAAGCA
4. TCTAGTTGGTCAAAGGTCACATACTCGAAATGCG
5. CAAACTAGGTCATCGGAAGGTCAAAGTCCGCATG
6. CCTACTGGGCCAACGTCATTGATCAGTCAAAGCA
7. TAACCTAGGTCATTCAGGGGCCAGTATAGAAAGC
8. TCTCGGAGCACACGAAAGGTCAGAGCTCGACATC

Reply:
1: 6.69; 2: 2.47; 3: 3.62; 4: 6.01; 5: 6.47; 6: -0.0642; 7: 5.25; 8: 3.53

Parameters: items (list). Returns: PBM binding z-score for each item.
1. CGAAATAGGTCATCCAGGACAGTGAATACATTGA
2. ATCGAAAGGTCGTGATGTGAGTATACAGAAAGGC
3. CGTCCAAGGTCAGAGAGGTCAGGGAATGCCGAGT
4. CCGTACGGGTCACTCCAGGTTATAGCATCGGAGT
5. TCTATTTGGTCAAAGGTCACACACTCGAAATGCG
6. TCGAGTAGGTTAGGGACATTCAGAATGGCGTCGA
7. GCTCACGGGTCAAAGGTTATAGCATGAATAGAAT

Reply:
[4.84, 3.35, 7.38, 4.74, 6.16, 0.37, 4.64]

Parameters: items (list). Returns: PBM binding z-score for each item.
1. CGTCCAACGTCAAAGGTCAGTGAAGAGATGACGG
2. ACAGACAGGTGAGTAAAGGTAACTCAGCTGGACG
3. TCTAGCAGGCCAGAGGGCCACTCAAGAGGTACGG
4. ACTAGCAGGCCAAGTGTGGGTCACTCAAACAAAG
5. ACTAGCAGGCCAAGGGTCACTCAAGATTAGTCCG
6. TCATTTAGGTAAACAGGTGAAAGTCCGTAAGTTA
7. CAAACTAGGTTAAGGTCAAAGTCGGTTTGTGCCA

Reply:
5.08
0.622
-0.117
1.51
3.74
0.406
4.99

Query: In one line, give reported PBM binding z-score of the entry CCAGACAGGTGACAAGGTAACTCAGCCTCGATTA .
Reply: 0.728
